We begin with a simple list: items and their reported Relative IC50 (IC50 relative to CM-1), IL-6 release from hS100A8/A9-activated human PBMCs.
- target desc: T1, human S100A8/A9 heterodimeric antigen, His-tagged (hS100A8/A9-His) (human, UniProt P05109 1-93; P06702 1-114)
- T1 sequence 1: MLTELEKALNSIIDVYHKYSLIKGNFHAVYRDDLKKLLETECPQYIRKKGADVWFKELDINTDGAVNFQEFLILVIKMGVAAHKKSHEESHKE
- T1 sequence 2: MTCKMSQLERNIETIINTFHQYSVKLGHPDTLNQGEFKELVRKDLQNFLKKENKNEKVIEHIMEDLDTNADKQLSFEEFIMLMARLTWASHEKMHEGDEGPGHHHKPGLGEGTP
- assay method text: cell-based or functional assay
property name: Relative IC50 (IC50 relative to CM-1), IL-6 release from hS100A8/A9-activated human PBMCs

binder: CM-58 (antibody, human IgG4 S228P, lambda, V domains shown) VH: EVQLVESGGGLVQPGGSLRLSCAASGFTFSSYAMSWVRQAPGKGLEWVSAISGSGGSTWYAASVKGRFTISRDNSKNTLYLQMNSLRAEDTAVYYCARKYRPSRVFDAWGQGTLVTVSS VL: SYELTQPPSVSVAPGQTARITCSGDALGDKYASWYQQKPGQAPVLVIYEDAKRPSGIPERFSGSNSGNTATLTISGTQAEDEADYYCQSNDIDAVWVFGGGTKLTVLG
result: 1.52 relative to CM-1

binder: CM-90 (antibody, human IgG4 S228P, lambda, V domains shown) VH: EVQLVESGGGLVQPGGSLRLSCAASGFTFSDYAMSWVRQAPGKGLEWVSAISGSGGSTYYAASVKGRFTISRDNSKNTLYLQMNSLRAEDTAVYYCARKYRPSRVFDAWGQGTLVTVSS VL: SYELTQPPSVSVAPGQTARITCSGDALHDKYASWYQQKPGQAPVLVIYEDAKRPSGIPERFSGSNSGNTATLTISGTQAEDEADYYCQSNDADAVWVFGGGTKLTVLG
result: 1.54 relative to CM-1
